tgt: AtPDF variant G41Q (Arabidopsis thaliana, UniProt Q9FUZ2, G121Q)
Sequence (Q9FUZ2 83-273 G121Q): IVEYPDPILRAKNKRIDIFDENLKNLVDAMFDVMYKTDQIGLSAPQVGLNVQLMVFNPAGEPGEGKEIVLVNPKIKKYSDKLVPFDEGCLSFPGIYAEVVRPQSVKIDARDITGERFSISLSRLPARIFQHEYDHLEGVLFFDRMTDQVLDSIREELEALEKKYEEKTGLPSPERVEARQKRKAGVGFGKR
assay-method-text: PDF activity assay coupled to formate dehydrogenase
Description: Assay of PDF activity was coupled to formate dehydrogenase, where the absorbance of NADH at 340 nm was measured at 37°C as previously described. […] The data were then calculated according to the method of Henderson, which can be used to determine the dissociation constant of the tight-binding competitive enzyme inhibitor [28],[49],[72] by varying both the inhibitor and substrate concentrations. […]
measured-metric: Kd (µM)
Entry rule: numbers only, all in µM.

Query "CCCCC[C@H](CC(=O)NO)C(=O)N[C@H](C(=O)N1CCC[C@H]1CO)C(C)C" yields Kd of 0.048

---

tgt: AtPDF variant I42N (Arabidopsis thaliana, UniProt Q9FUZ2, I122N)
Construct: Expression and purification of mature Arabidopsis thaliana PDF1B and all variants (i.e., AtPDF); made in house
Sequence (Q9FUZ2 57-273 I122N): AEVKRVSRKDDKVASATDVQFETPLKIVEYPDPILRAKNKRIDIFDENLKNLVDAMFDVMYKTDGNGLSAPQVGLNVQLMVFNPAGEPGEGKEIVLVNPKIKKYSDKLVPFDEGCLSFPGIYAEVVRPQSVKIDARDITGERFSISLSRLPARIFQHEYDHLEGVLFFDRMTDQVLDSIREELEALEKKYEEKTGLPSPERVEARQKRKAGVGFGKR
assay-method-text: biochemical
experimental-conditions: KI*app, I42N; 100 nM enzyme; 2 mM substrate; actinonin preincubated 10 min at 37°C
measured-metric: pKi
Please note pKi is a logarithmic value: minus log10 of concentration in mol/L. Answer with that number alone.

Record CCCCC[C@H](CC(=O)NO)C(=O)N[C@H](C(=O)N1CCC[C@H]1CO)C(C)C [actinonin] . Reported pKi: 8.20

---

tgt: AtPDF variant I42A (Arabidopsis thaliana, UniProt Q9FUZ2, I122A)
Construct: Expression and purification of mature Arabidopsis thaliana PDF1B and all variants (i.e., AtPDF)
Sequence (Q9FUZ2 57-273 I122A): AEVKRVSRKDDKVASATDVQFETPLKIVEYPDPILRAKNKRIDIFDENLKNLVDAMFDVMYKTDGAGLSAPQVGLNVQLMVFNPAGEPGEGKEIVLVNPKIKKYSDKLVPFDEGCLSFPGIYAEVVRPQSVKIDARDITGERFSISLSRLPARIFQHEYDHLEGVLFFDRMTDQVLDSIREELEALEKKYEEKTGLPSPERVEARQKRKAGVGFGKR
assay-method-text: biochemical
Method: Assay of PDF activity was coupled to formate dehydrogenase, where the absorbance of NADH at 340 nm was measured at 37°C as previously described. […] The data were then calculated according to the method of Henderson, which can be used to determine the dissociation constant of the tight-binding competitive enzyme inhibitor [28],[49],[72] by varying both the inhibitor and substrate concentrations. […]
measured-metric: pKd
pKd is defined as minus the log10 of a concentration measured in mol/L.

Entry CCCCC[C@H](CC(=O)NO)C(=O)N[C@H](C(=O)N1CCC[C@H]1CO)C(C)C [actinonin] , tested on AtPDF variant I42A (Arabidopsis thaliana, UniProt Q9FUZ2, I122A), has a reported pKd of 8.52

---

tgt: UniProt:Q9FUZ2
assay-method-text: PDF activity assay coupled to formate dehydrogenase (NADH absorbance at 340 nm)
experimental-conditions: KI*app, Wild-type; 100 nM enzyme; 2 mM substrate; actinonin preincubated 10 min at 37°C
measured-metric: pKi
Convention used: pKi is expressed as -log10 of the molar concentration.

CCCCC[C@H](CC(=O)NO)C(=O)N[C@H](C(=O)N1CCC[C@H]1CO)C(C)C [actinonin] has a reported pKi of 8.64

---

tgt: AtPDF variant I42F (Arabidopsis thaliana, UniProt Q9FUZ2, I122F)
Construct: Expression and purification of mature Arabidopsis thaliana PDF1B and all variants (i.e., AtPDF); made in house
assay-method-text: Isothermal titration calorimetry (ITC)
Assay type: binding
measured-metric: Kd (nM)
Lab book: enter the figure in nM, no units written.

Record summary for "CCCCC[C@H](CC(=O)NO)C(=O)N[C@H](C(=O)N1CCC[C@H]1CO)C(C)C" : reported Kd = 3.6

---

tgt: AtPDF variant I42W (Arabidopsis thaliana, UniProt Q9FUZ2, I122W)
Construct: Expression and purification of mature Arabidopsis thaliana PDF1B and all variants (i.e., AtPDF); made in house
Sequence (Q9FUZ2 83-273 I122W): as the sequence (Q9FUZ2 83-273 G121Q) above, with Q39G, I40W counted along it
assay-method-text: biochemical
experimental-conditions: KI*app, 100 nM enzyme, 2 mM substrate, actinonin preincubated 10 min at 37°C
measured-metric: Ki (nM)
Unit nM implied. Number only.

Lab note: "CCCCC[C@H](CC(=O)NO)C(=O)N[C@H](C(=O)N1CCC[C@H]1CO)C(C)C" gave Ki of 2.8
